- assayText: in vitro
- Assay type: cell-based, human
- condition: human; Fig 7G hit compounds; cell line for this CC50 not stated; n.d. = not detected
readoutKind: CC50 (µM)
Lab book: enter the figure in µM, no units written.

Item: CC[C@@H](C(=O)[C@@H](C)[C@@H](O)[C@H](C)[C@@H]1O[C@@H]([C@@H](CC)C(=O)O)CC[C@@H]1C)[C@H]1O[C@]2(C=C[C@@H](O)[C@]3(CC[C@@](C)([C@H]4CC[C@](O)(CC)[C@H](C)O4)O3)O2)[C@H](C)C[C@@H]1C | CC50: 20.2
